- ASSAY TEXT: Solubility of compound 1 in the solvent under evaluation at 22° C. and 65° C. (crystallization study)
- Format: physicochemical
- SETUP CONDITIONS: acetone, 65 °C, organic solvent or mixture, solvent: Acetone; read-out: Solubility at 65° C.
METRIC NAME: solubility

What does the record list as solubility for Nc1ncc(-c2cc(N3C[C@@H]4C[C@H]3CO4)nc(N3CCC(F)(F)C3)n2)cc1OC(F)F ?
> 50 mg/mL

###

- ASSAY TEXT: Solubility of compound 1 in the solvent under evaluation at 22° C. and 65° C. (crystallization study)
- Assay type: physicochemical
- SETUP CONDITIONS: 20% water in acetonitrile, 22 °C, organic solvent or mixture, thermodynamic from solid, solvent: 20% water in acetonitrile; read-out: Solubility at 22° C.
METRIC NAME: solubility

Given Nc1ncc(-c2cc(N3C[C@@H]4C[C@H]3CO4)nc(N3CCC(F)(F)C3)n2)cc1OC(F)F , state its recorded solubility.
< 50 mg/mL

###

- ASSAY TEXT: Solubility of compound 1 in the solvent under evaluation at 22° C. and 65° C. (crystallization study)
- Type: physicochemical
- SETUP CONDITIONS: Acetonitrile, 65 °C, organic solvent or mixture, solvent: Acetonitrile; read-out: Solubility at 65° C.
METRIC NAME: solubility

GET /values?readout=solubility&item= Nc1ncc(-c2cc(N3C[C@@H]4C[C@H]3CO4)nc(N3CCC(F)(F)C3)n2)cc1OC(F)F [Compound 1]
> 50 mg/mL

###

- ASSAY TEXT: Solubility of compound 1 in the solvent under evaluation at 22° C. and 65° C. (crystallization study)
- Format: physicochemical
- SETUP CONDITIONS: Toluene, 22 °C, organic solvent or mixture, thermodynamic from solid, solvent: Toluene; read-out: Solubility at 22° C.
METRIC NAME: solubility

Please report the recorded solubility for Nc1ncc(-c2cc(N3C[C@@H]4C[C@H]3CO4)nc(N3CCC(F)(F)C3)n2)cc1OC(F)F .
< 50 mg/mL

###

- ASSAY TEXT: Solubility of compound 1 in the solvent under evaluation at 22° C. and 65° C. (crystallization study)
- Format: physicochemical
- SETUP CONDITIONS: 15% water in ethanol, 22 °C, organic solvent or mixture, thermodynamic from solid, solvent: 15% water in ethanol; read-out: Solubility at 22° C.
METRIC NAME: solubility

Query: solubility; subject: Nc1ncc(-c2cc(N3C[C@@H]4C[C@H]3CO4)nc(N3CCC(F)(F)C3)n2)cc1OC(F)F
< 50 mg/mL

###

- ASSAY TEXT: Solubility of compound 1 in the solvent under evaluation at 22° C. and 65° C. (crystallization study)
- Format: physicochemical
- SETUP CONDITIONS: i-butanol, 22 °C, organic solvent or mixture, thermodynamic from solid, solvent: i-Butanol; read-out: Solubility at 22° C.
- Procedure: Crystalline compound 1 was evaluated. Crystallization study procedures were done based on the solubility of compound 1 in the solvent under evaluation as follows. The results are presented below in Table 10 where: * refers to compound 1 prepared as described above; and ** refers to compound 1 prepared as described above and further incubated at 100% relative humidity at 22° C. for 17 days.
METRIC NAME: solubility

I am curious: what solubility value has been reported for Nc1ncc(-c2cc(N3C[C@@H]4C[C@H]3CO4)nc(N3CCC(F)(F)C3)n2)cc1OC(F)F [Compound 1] ?
< 50 mg/mL

###

- ASSAY TEXT: Solubility of compound 1 in the solvent under evaluation at 22° C. and 65° C. (crystallization study)
- Type: physicochemical
- SETUP CONDITIONS: Acetonitrile, 22 °C, organic solvent or mixture, thermodynamic from solid, solvent: Acetonitrile; read-out: Solubility at 22° C.
METRIC NAME: solubility

I am curious: what solubility value has been reported for Nc1ncc(-c2cc(N3C[C@@H]4C[C@H]3CO4)nc(N3CCC(F)(F)C3)n2)cc1OC(F)F ?
< 50 mg/mL

###

- ASSAY TEXT: Solubility of compound 1 in the solvent under evaluation at 22° C. and 65° C. (crystallization study)
- Type: physicochemical
- SETUP CONDITIONS: 50% water in methanol, 65 °C, aqueous with cosolvent or surfactant or cyclodextrin, solvent: 50% water in methanol; read-out: Solubility at 65° C.
METRIC NAME: solubility

Which solubility is reported for this compound? Nc1ncc(-c2cc(N3C[C@@H]4C[C@H]3CO4)nc(N3CCC(F)(F)C3)n2)cc1OC(F)F
< 50 mg/mL

###

- ASSAY TEXT: Solubility of compound 1 in the solvent under evaluation at 22° C. and 65° C. (crystallization study)
- Assay type: physicochemical
- SETUP CONDITIONS: 80% water in acetonitrile, 65 °C, aqueous with cosolvent or surfactant or cyclodextrin, solvent: 80% water in acetonitrile; read-out: Solubility at 65° C.
METRIC NAME: solubility

Fill in the blank: the reported solubility of Nc1ncc(-c2cc(N3C[C@@H]4C[C@H]3CO4)nc(N3CCC(F)(F)C3)n2)cc1OC(F)F [Compound 1] is ____.
< 50 mg/mL

###

- ASSAY TEXT: Solubility of compound 1 in the solvent under evaluation at 22° C. and 65° C. (crystallization study)
- Assay type: physicochemical
- SETUP CONDITIONS: 50% water in acetonitrile, 65 °C, aqueous with cosolvent or surfactant or cyclodextrin, solvent: 50% water in acetonitrile; read-out: Solubility at 65° C.
METRIC NAME: solubility

// lookup solubility for Nc1ncc(-c2cc(N3C[C@@H]4C[C@H]3CO4)nc(N3CCC(F)(F)C3)n2)cc1OC(F)F
< 50 mg/mL

###

- ASSAY TEXT: Solubility of compound 1 in the solvent under evaluation at 22° C. and 65° C. (crystallization study)
- Format: physicochemical
- SETUP CONDITIONS: 5% water in ethanol, 65 °C, organic solvent or mixture, solvent: 5% water in ethanol; read-out: Solubility at 65° C.
METRIC NAME: solubility

Look at this molecule and give its reported solubility. Nc1ncc(-c2cc(N3C[C@@H]4C[C@H]3CO4)nc(N3CCC(F)(F)C3)n2)cc1OC(F)F [Compound 1]
< 50 mg/mL

###

- ASSAY TEXT: Solubility of compound 1 in the solvent under evaluation at 22° C. and 65° C. (crystallization study)
- Type: physicochemical
- SETUP CONDITIONS: ethanol, 65 °C, organic solvent or mixture, solvent: Ethanol; read-out: Solubility at 65° C.
- Protocol: Crystalline compound 1 was evaluated. Crystallization study procedures were done based on the solubility of compound 1 in the solvent under evaluation as follows. The results are presented below in Table 10 where: * refers to compound 1 prepared as described above; and ** refers to compound 1 prepared as described above and further incubated at 100% relative humidity at 22° C. for 17 days.
METRIC NAME: solubility

GET /values?readout=solubility&item= Nc1ncc(-c2cc(N3C[C@@H]4C[C@H]3CO4)nc(N3CCC(F)(F)C3)n2)cc1OC(F)F [Compound 1]
< 50 mg/mL

###

- ASSAY TEXT: Solubility of compound 1 in the solvent under evaluation at 22° C. and 65° C. (crystallization study)
- Format: physicochemical
- SETUP CONDITIONS: Dimethyl carbonate, 65 °C, organic solvent or mixture, solvent: Dimethyl carbonate; read-out: Solubility at 65° C.
METRIC NAME: solubility

Fill in the blank: the reported solubility of Nc1ncc(-c2cc(N3C[C@@H]4C[C@H]3CO4)nc(N3CCC(F)(F)C3)n2)cc1OC(F)F [Compound 1] is ____.
> 50 mg/mL

###

- ASSAY TEXT: Solubility of compound 1 in the solvent under evaluation at 22° C. and 65° C. (crystallization study)
- Type: physicochemical
- SETUP CONDITIONS: Isopropyl acetate, 22 °C, organic solvent or mixture, thermodynamic from solid, solvent: Isopropyl acetate; read-out: Solubility at 22° C.
METRIC NAME: solubility

For Nc1ncc(-c2cc(N3C[C@@H]4C[C@H]3CO4)nc(N3CCC(F)(F)C3)n2)cc1OC(F)F , what is its reported solubility?
< 50 mg/mL

###

- ASSAY TEXT: Solubility of compound 1 in the solvent under evaluation at 22° C. and 65° C. (crystallization study)
- Format: physicochemical
- SETUP CONDITIONS: 15% water in methanol, 22 °C, organic solvent or mixture, thermodynamic from solid, solvent: 15% water in methanol; read-out: Solubility at 22° C.
METRIC NAME: solubility

Which solubility reading was recorded for the compound Nc1ncc(-c2cc(N3C[C@@H]4C[C@H]3CO4)nc(N3CCC(F)(F)C3)n2)cc1OC(F)F ?
< 50 mg/mL

###

- ASSAY TEXT: Solubility of compound 1 in the solvent under evaluation at 22° C. and 65° C. (crystallization study)
- Format: physicochemical
- SETUP CONDITIONS: DMSO, 22 °C, organic solvent or mixture, thermodynamic from solid, solvent: DMSO; read-out: Solubility at 22° C.
METRIC NAME: solubility

Query (compound): Nc1ncc(-c2cc(N3C[C@@H]4C[C@H]3CO4)nc(N3CCC(F)(F)C3)n2)cc1OC(F)F [Compound 1] ; field requested: solubility
> 100 mg/mL
